Tested on: cardiomyocytes derived from hiPSCs from a LQTS3 patient
CONDITION_SET: LQT3 cardiomyocytes
The reader will find reported LQT-Cessation Dose values listed item by item below.
ENDPOINT: LQT-Cessation Dose (µM)

• Cc1cccc(C)c1OCC(N)C1CC1 (stereo not shown) [Compound 10] = 200
• CNC(C)COc1c(C)cccc1C (stereo not shown) [Compound 11] = 133
• Cc1cccnc1OCC(=NOCc1ccccc1)c1ccccc1 [Compound 19] = 133
• Cl.NC(COc1cc(C(F)(F)F)cc(C(F)(F)F)c1)c1ccccc1 (stereo not shown) [Compound 78] = 66
• CCCNC(COc1cccc(C)c1C)c1ccccc1 (stereo not shown) [Compound 31] = 133
• Cc1cc(C)cc(OCC(C)N)c1 (stereo not shown) [Compound 55] = 200
• CC(=O)NC(COc1c(C)cccc1C)c1ccccc1 (stereo not shown) [Compound 28] = 66

---

Tested on: normal human induced pluripotent stem cell (hiPSC) cardiomyocyte
CONDITION_SET: normal hiPSC cardiomyocytes
Structures can show the parent of a compound that is named as a salt.
ENDPOINT: Cessation of Beating

- Cc1cccc(Cl)c1OC[C@H](C)N [Compound 57, hydrochloride]: None
- CC(N)COc1ccccc1C(F)(F)F (stereo not drawn): None
- Cc1cccc(OCC(C)N)c1.Cl (stereo not drawn): None
